B1: glmS ribozyme (parent)
chain: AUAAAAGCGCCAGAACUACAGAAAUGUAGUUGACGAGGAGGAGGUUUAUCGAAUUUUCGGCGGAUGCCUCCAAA

Variants of: B1
assay.method.text: self-cleavage kobs at 640 uM GlcN6P; higher = faster cleavage; RNA array
run.parameters: with glucosamine-6-phosphate
Fewer inactive variants are shown than the library holds.

{"columns": ["variant.designation", "self-cleavage kobs at 640 uM GlcN6P"],
 "data": [
  ["C34G G62A", "< 1e-05 s⁻¹"],
  ["G51U G63A C68G", "9.2e-05 s⁻¹"],
  ["G41C A53G", "0.000157 s⁻¹"],
  ["G7C U69A C70U", "< 1e-05 s⁻¹"],
  ["U47G G62A", "< 1e-05 s⁻¹"],
  ["A12U G35U", "< 1e-05 s⁻¹"],
  ["A14U G29C G51U", "< 1e-05 s⁻¹"],
  ["U30G A53U", "0.0019 s⁻¹"],
  ["G13A U30G G41U U46C G63C", "< 1e-05 s⁻¹"],
  ["C11A A39G", "0.000101 s⁻¹"],
  ["A12C C70U", "0.00328 s⁻¹"],
  ["A39G G66A", "0.00601 s⁻¹"],
  ["C8U C11U U55A G62A", "< 1e-05 s⁻¹"],
  ["G29C G41U G63C C68A", "< 1e-05 s⁻¹"],
  ["C11G U69G", "0.000184 s⁻¹"],
  ["A6C C10A C34G C50U U56A", "< 1e-05 s⁻¹"],
  ["A6G C16G G32A", "< 1e-05 s⁻¹"],
  ["U49C U65C", "< 1e-05 s⁻¹"],
  ["G29U G37A", "8.23e-05 s⁻¹"],
  ["G35U A42C", "< 1e-05 s⁻¹"],
  ["G7U G35A", "< 1e-05 s⁻¹"],
  ["A6G G7U U31C A36C", "< 1e-05 s⁻¹"],
  ["C34A A39C G59C C61G", "< 1e-05 s⁻¹"],
  ["G41A C50G", "< 1e-05 s⁻¹"],
  ["A64C C68A C70G", "< 1e-05 s⁻¹"],
  ["A15G U47C", "0.00164 s⁻¹"],
  ["A12U G29A U56C", "0.000685 s⁻¹"],
  ["G7U G9A A14U U55C", "< 1e-05 s⁻¹"],
  ["A39G U55G", "0.00499 s⁻¹"],
  ["C58G A64U", "< 1e-05 s⁻¹"],
  ["G7U G62A C67A", "< 1e-05 s⁻¹"],
  ["G9A A42G G43U C61A", "< 1e-05 s⁻¹"],
  ["G13A A52C C58G U69G", "4.44e-05 s⁻¹"],
  ["A39U U54C G62C", "< 1e-05 s⁻¹"],
  ["U45A U49C", "< 1e-05 s⁻¹"],
  ["C11U U56G", "0.000297 s⁻¹"],
  ["A52U U69A", "4.77e-05 s⁻¹"],
  ["U56C A64C", "< 1e-05 s⁻¹"],
  ["U56A U57G", "3.45e-05 s⁻¹"],
  ["G35C G62U", "< 1e-05 s⁻¹"],
  ["A6G A53G C61A", "< 1e-05 s⁻¹"],
  ["G7U G32C G38C A42U C50U", "< 1e-05 s⁻¹"],
  ["A53C U56A G59C G63U", "< 1e-05 s⁻¹"],
  ["G29A U46A A53U U56C", "< 1e-05 s⁻¹"],
  ["G35C U49A", "< 1e-05 s⁻¹"],
  ["G44C C70G", "< 1e-05 s⁻¹"]
]}
